- System: HLO microarrays (iPSC-derived human liver organoids)
- experiment_summary: cells
- measurement_setup: Homo sapiens, 168 h, read-out: Cell Viability (% of control) IC50, ATP-based, seven-day repeated-dose treatment, Figure 2D
pIC50: −log10 of the molar value.
quantity: pIC50

>>> result_number("CN(C)CCCN1c2ccccc2Sc2ccc(Cl)cc21")
4.84
